- System: Desmoglein-3 (Homo sapiens) (UniProt P32926)
- Sequence (P32926 whole entry, looked up): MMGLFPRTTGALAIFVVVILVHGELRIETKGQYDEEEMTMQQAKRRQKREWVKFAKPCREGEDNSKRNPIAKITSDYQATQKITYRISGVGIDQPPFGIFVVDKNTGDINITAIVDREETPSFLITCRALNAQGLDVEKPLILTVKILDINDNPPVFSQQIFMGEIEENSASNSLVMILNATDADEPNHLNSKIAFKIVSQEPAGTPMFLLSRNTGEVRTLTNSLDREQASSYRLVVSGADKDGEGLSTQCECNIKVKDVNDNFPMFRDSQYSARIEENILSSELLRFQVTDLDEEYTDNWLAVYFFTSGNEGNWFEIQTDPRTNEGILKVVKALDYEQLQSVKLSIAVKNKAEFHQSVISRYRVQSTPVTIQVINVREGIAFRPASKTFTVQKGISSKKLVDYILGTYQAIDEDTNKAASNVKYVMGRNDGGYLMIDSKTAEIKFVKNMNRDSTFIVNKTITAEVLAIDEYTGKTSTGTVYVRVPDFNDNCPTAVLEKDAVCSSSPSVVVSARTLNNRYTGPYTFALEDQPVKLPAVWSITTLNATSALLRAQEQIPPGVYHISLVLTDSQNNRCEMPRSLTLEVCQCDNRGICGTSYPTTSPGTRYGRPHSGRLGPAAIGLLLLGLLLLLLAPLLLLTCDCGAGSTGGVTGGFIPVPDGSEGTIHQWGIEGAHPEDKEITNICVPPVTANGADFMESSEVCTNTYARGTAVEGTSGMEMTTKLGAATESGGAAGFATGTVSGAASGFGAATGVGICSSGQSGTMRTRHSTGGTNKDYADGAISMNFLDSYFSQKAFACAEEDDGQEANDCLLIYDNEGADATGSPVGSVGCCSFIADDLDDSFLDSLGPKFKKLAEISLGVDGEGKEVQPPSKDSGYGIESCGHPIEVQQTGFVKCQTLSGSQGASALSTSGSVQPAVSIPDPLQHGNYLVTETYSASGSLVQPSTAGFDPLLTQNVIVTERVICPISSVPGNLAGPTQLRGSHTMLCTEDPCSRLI
- Procedure Text: inhibitors of anti-DSG3 scFv binding to DSG3, confirmation, biochemical, cherry pick 1, bead-based, flow cytometry (AID 588466)
- Condition Parameters: Protein G beads with DSG3, scFv-GFP binding, at 10 µM
Hit rate of the full screen: of about 2,100 compounds, about 30 (1%) were called active.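 The calls were made as follows: active = compounds whose mean binding response over two repeats is below 75% of the DMSO control; inactive = the rest.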 A selection follows.
Give one outcome, nothing more. List: Yes (active), No (inactive)

Hey, what did the test say about COc1cc(CN2CCC(n3nccc3NC(=O)C3CC3)CC2)cc(OC)c1 ?
No

// return assay outcome for COc1cccc(-c2nc(NCc3ccco3)c3ccccc3n2)c1O
No

Hey, what did the test say about CCOC(=O)CSc1nc2sc(C)c(C)c2c(=O)n1N ?
No

Record lookup: outcome of this test for CCOc1ccc2c(c1)C(NC(C)=O)C(=O)N2CCN1CCOCC1 (stereo not drawn) ?
No

Name the outcome recorded for COc1ccc(Cl)c(NC(=O)NCCN2CCN(c3ccccc3)CC2)c1 in the assay.
Yes

Test call for this compound, please: CCc1cc2cc3c(cc2nc1SCC(=O)Nc1cc(C)on1)OCO3
No

What call does the record list for CCn1nc(C(=O)OCc2c(C)noc2C)c2ccccc2c1=O ?
No

// outcome(item) with item = CCOc1cccc(C(=O)Nc2ccc(N3CCN(S(C)(=O)=O)CC3)cc2)c1
No

Please indicate how the test categorized COC(=O)c1oc2ccc(Cl)cc2c1NC(C)=O .
No

Call for entry COC(=O)c1ccc(NC(=O)COc2ccc3c(c2)OCO3)cc1 :
No

Name the outcome recorded for CCCN(CCC)CCNC(=O)Cn1cnc2sc(C)c(S(=O)(=O)N3CCOCC3)c2c1=O in the assay.
No

Fill in: this test's call for COc1ccc(CN(CCN(C)C)Cc2ccccc2)c(OC)c1 is ___
No

Give the logged outcome of this assay for the following compound: COc1ccc(CC(=O)Nc2cccc(C(=O)NN3C(=O)c4ccccc4C3=O)c2C)cc1
No

Lab log entry: O=C1CSC(c2ccncc2)N1Cc1ccco1 (stereo not drawn) — outcome as called in the assay?
No

I would be grateful if you could indicate the recorded call for COc1ccc(NC(=O)CSc2nnc(Cc3ccc(C)cc3)c(=O)n2N)cc1 .
No

What did the test return for O=C1c2ccc(-c3ccc(F)cc3OCc3ccccc3)cc2S(=O)(=O)c2cccc(C(=O)N3CCN(c4ncc(Br)cn4)CC3)c21 ?
No

Called result for CC(=O)N1C(=O)/C(=C2\SC(=S)N(c3c(C)n(C)n(-c4ccccc4)c3=O)C2=O)c2ccccc21
No

Any idea what this test logged for Cc1ccc(-n2nc3c(c2NC(=O)c2ccc(Br)o2)CSC3)c(C)c1 ?
No

In this assay, the call recorded for O=C(COc1ccccc1Cl)NCCNC(=O)c1ccccn1 was what?
No

Could you check what this test reported for Nc1nc(SCc2nnc(SCC(=O)O)n2-c2ccccc2)nc2sc3c(c12)CCCC3 ?
No

Hello, I am checking results. What call was entered for CC(C)Oc1ccc(C(=O)Nc2c3c(nn2-c2ccccc2)CS(=O)(=O)C3)cc1 ?
No

What was the test verdict on COc1ccc(CNS(=O)(=O)c2cn(C)c(=O)n(C)c2=O)cc1 ?
No

I would be grateful if you could indicate the recorded call for Cc1ccc(NC(=O)COc2ccc3c(c2)OCO3)c(C)c1 .
No
